B1: KCNK9 (parent)
chain: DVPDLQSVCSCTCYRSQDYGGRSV

variants of: B1; assay: protein stability index of a GFP-peptide fusion (GPS, HEK-293T) (PSI 1-6); higher = more stable; details: c terminus: a fixed tail appended;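 also: lentivirally expressed fusions sorted by FACS into six bins by GFP to DsRed ratio, PSI derived from sequencing read proportions per bin multiplied by bin number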
I would appreciate it if you labelled entries 1 when protein stability index is 2 or higher, otherwise 0.

>>> label_value("DVPDLQSVCSCTCYRSQDCGGRSV")
0
>>> label_value("DVPLLQSVCSCTCYRSQDYGGRSV")
0
>>> label_value("DVPDLQSVCSCKCYRSQDYGGRSV")
0
>>> label_value("AVPDLQSVCSCTCYRSQDYGGRSV")
0
>>> label_value("DVPDTQSVCSCTCYRSQDYGGRSV")
1
>>> label_value("DVPDLQSWCSCTCYRSQDYGGRSV")
0
>>> label_value("DVPDLQSVISCTCYRSQDYGGRSV")
1
>>> label_value("DVPDLQSVCSCTCYRSLDYGGRSV")
1
>>> label_value("DVPDLQVVCSCTCYRSQDYGGRSV")
0
>>> label_value("DVPDLQSVCSCTCYRSQDYIGRSV")
1
>>> label_value("DVPDWQSVCSCTCYRSQDYGGRSV")
0
>>> label_value("DVPDLQSVCSCYCYRSQDYGGRSV")
0
>>> label_value("DVPDLQSVCSTTCYRSQDYGGRSV")
1
